- Tested on: Hs 683
- Protocol description: Growth inhibition of apoptosis-sensitive human Hs 683 cells after 72 hrs by MTT assay
- Assay type: functional, cell-based
- Protocol conditions: Hs 683, 72 h
pIC50: −log10 of the molar value.
The following compounds are listed with their measured pIC50 values.

- Compound: "C[C@@H]1[C@@]2(C)CC[C@@H]3[C@H]2CC[C@@]1(C)O[C@@]3(C)O [SEIRICARDINE B]"
  Qualifier: "<"
  pIC50: 4.00
- Compound: "C/C=C/C=C/C(=O)[C@@H]1[C@@H]([C@]2(C)OC(=O)C(C)=C2O)C2\\C(=C(O)/C=C/C=C/C)C(=O)[C@]1(C)C(=O)[C@@]2(C)O [BISLONGIQUINOLIDE]"
  Qualifier: "="
  pIC50: 4.66
- Compound: "O=C1N[C@@H]2C(=C[C@H](O)[C@@H](O)[C@H]2O)c2cc3c(c(O)c21)OCO3 [NARCICLASINE]"
  Qualifier: "="
  pIC50: 7.30
- Compound: "O[C@H]1[C@H]2c3cc4c(cc3CN3CCC(=C[C@@H]1O)[C@H]23)OCO4 [LYCORINE]"
  Qualifier: "="
  pIC50: 5.70
- Compound: "C[C@@H]1[C@@]2(C)CC[C@@H]3[C@H]2CC[C@@]1(C)O[C@]3(C)O [SEIRICARDINE C]"
  Qualifier: "<"
  pIC50: 4.00
- Compound: "C/C=C/C=C/C(=O)C1=C(O)[C@@]2(C)C3C(C(=O)CC/C=C/C)=C(O)[C@@]4(C)C1[C@]1(C)O[C@@]4(O)[C@@]3(C)O[C@@]12O [DIHYDROTRICHODIMEROL]"
  Qualifier: "="
  pIC50: 4.47
